Assay protocol: Inhibition of bacterial Metallo-beta-lactamase VIM-2 (unknown origin) assessed as substrate hydrolysis using meropenem as substrate by UV-visible spectrometry analysis
Design: species or system Bacteria
pKi: −log10 of the molar value.
We use 6 as the dividing line for pKi: on or above the line is criterion met, below is criterion not met.

O=[N+]([O-])c1ccc(O)c(CSCCn2c(-c3ccccc3)n[nH]c2=S)c1: criterion met
O=C(O)CCSCCn1c(-c2ccccc2)n[nH]c1=S: criterion not met
S=c1[nH]nc(-c2ccccc2)n1CCSCc1ccccc1: criterion met

Please indicate if the recorded pKi for `S=c1[nH]nc(-c2ccccc2)n1CCSc1ccccc1` meets or exceeds 6.
criterion not met

Quick check, pKi >= 6? `O=[N+]([O-])c1ccccc1CSCCn1c(-c2ccccc2)n[nH]c1=S`
criterion met

Is it the case that `Fc1ccccc1CSCCn1c(-c2ccccc2)n[nH]c1=S` has pKi reaching or exceeding 6?
criterion met

Does the molecule O=C(O)C(CSCCn1c(-c2ccccc2)n[nH]c1=S)c1ccccc1 (stereo unspecified) have recorded pKi that is 6 or more?
criterion met

----------
Tested on: Bacteria
Assay protocol: Inhibition of bacterial Metallo-beta-lactamase IMP-1 (unknown origin) assessed as substrate hydrolysis at 100 uM using meropenem as substrate by UV-visible spectrometry analysis
Listing: inhibition of selected compounds
Answer in %, number only, no unit symbol.

// known answers, use as guide
S=c1[nH]nc(-c2ccccc2-c2ccccc2)n1CCSCc1ccccc1: 35
S=c1[nH]nc(-c2ccc(-c3ccccc3)cc2)n1CCSCc1ccccc1: 60
O=C(O)CCSCCn1c(-c2ccccc2)n[nH]c1=S: 67
S=c1[nH]nc(-c2ccccc2)n1CCSc1nc(-c2ccccc2)n[nH]1: 32

Read the next record carefully.
get_value(item= `S=c1[nH]nc(-c2ccccc2)n1CCCSc1ccccc1` , readout=inhibition) returns 46

----------
Assay protocol: Inhibition of bacterial Metallo-beta-lactamase VIM-2 (unknown origin) assessed as substrate hydrolysis using meropenem as substrate by UV-visible spectrometry analysis
Design: species or system Bacteria
pKi: −log10 of the molar value.
If the reported pKi equals or exceeds 6, assign fulfilled. If not, assign not fulfilled.

Look over these answered cases.
S=c1[nH]nc(-c2ccccc2)n1CCOCc1ccccc1: not fulfilled
COc1ccc(O)c(-c2n[nH]c(=S)n2CCSCc2ccccc2)c1: not fulfilled

Here's the next entry for you.
Item O=C(O)C(CSCCn1c(-c2cccc(-c3ccccc3)c2)n[nH]c1=S)c1ccccc1 (stereo unspecified) with pKi of 6 or above?
fulfilled

----------
In this section, each of the molecules is paired with its reported Ki.
Assay protocol: Inhibition of bacterial Metallo-beta-lactamase VIM-2 (unknown origin) assessed as substrate hydrolysis using meropenem as substrate by UV-visible spectrometry analysis
Parameters: species or system Bacteria

Previously resolved entries follow.
O=C(O)C(SCCn1c(-c2ccccc2)n[nH]c1=S)c1ccccc1 (centres undefined): 190 nM
S=c1[nH]nc(-c2ccccc2)n1CCSCCc1ccccc1: 1760 nM
Cn1cccc1-c1n[nH]c(=S)n1CCSCc1ccccc1: 340 nM

In the following, a different molecule is considered.
Measured Ki of `O=[N+]([O-])c1ccc(CSCCn2c(-c3ccccc3)n[nH]c2=S)cc1` : 1290 nM

----------
System: Bacteria
Assay protocol: Inhibition of bacterial Metallo-beta-lactamase VIM-2 (unknown origin) assessed as substrate hydrolysis at 100 uM using meropenem as substrate by UV-visible spectrometry analysis
// values below are reported inhibition

response.value for `S=c1[nH]nc(-c2ccc(-c3ccccc3)cc2)n1CCSCc1ccccc1` (field: inhibition) = < 30%

// sample `FC(F)(F)c1cc(SCCn2c(-c3ccccc3)n[nH]c2=S)c2ccccc2n1` , its inhibition was < 30%

Note to self: inhibition recorded for `S=c1[nH]nc(-c2ccccc2)n1CCSc1nc2ccccc2s1` was 30%

Record `S=c1[nH]nc(-c2ccccc2-c2ccccc2)n1CCSCc1ccccc1` , field inhibition: < 30%

Record `Cc1nnc(SCCn2c(-c3ccccc3)n[nH]c2=S)s1` . Reported inhibition: 56%

inhibition recorded for this compound, `S=c1[nH]nc(-c2ccc(OCc3ccccc3)cc2)n1CCSCc1ccccc1` , is < 30%

Sure, the documented inhibition for `S=c1[nH]nc(Cc2ccc3ccccc3c2)n1CCSCc1ccccc1` is < 30%

// inhibition lookup, compound = `S=c1[nH]nc(-c2ccccc2)n1CCSc1nc(-c2ccccc2)n[nH]1` , result: 44%

----------
Assay protocol: Inhibition of bacterial Metallo-beta-lactamase VIM-4 (unknown origin) assessed as substrate hydrolysis using meropenem as substrate by UV-visible spectrometry analysis
Set-up: species or system Bacteria
pKi: −log10 of the molar value.
Label rule, in plain words: pKi of 6 and up is label 1, under 6 is label 0.

Would you say `O=[N+]([O-])c1ccc(O)c(CSCCn2c(-c3ccccc3)n[nH]c2=S)c1` shows pKi at minimum 6?
label 1

Hello, I need to know if `Fc1ccccc1CSCCn1c(-c2ccccc2)n[nH]c1=S` has measured pKi not below 6. Thanks!
label 1

Please tell me: is the compound `O=[N+]([O-])c1ccccc1CSCCn1c(-c2ccccc2)n[nH]c1=S` at or over 6 in terms of pKi?
label 1

Could you please find out whether `S=c1[nH]nc(-c2ccccc2)n1CCOCc1ccccc1` has pKi that meets 6 or exceeds it?
label 0

Is the recorded value of pKi equal to or greater than 6 for this compound? `S=c1[nH]nc(-c2ccccc2)n1CCSc1ccccc1`
label 1

Determine whether measured pKi meets or exceeds 6 for O=C(O)C(CSCCn1c(-c2ccccc2)n[nH]c1=S)c1ccccc1 (stereo not drawn)
label 1

Form field: pKi at least 6? Entry: O=C(O)C(SCCn1c(-c2ccccc2)n[nH]c1=S)c1ccccc1 (stereo not drawn)
label 1

----------
Assay protocol: Inhibition of bacterial Metallo-beta-lactamase VIM-4 (unknown origin) assessed as substrate hydrolysis using meropenem as substrate by UV-visible spectrometry analysis
Parameters: species or system Bacteria
Let's look at some molecules and their measured pKi.
Please note pKi is a logarithmic value: minus log10 of concentration in mol/L. Answer with that number alone.

Below, each entry is followed by its recorded pKi result.
COc1ccc(O)c(-c2n[nH]c(=S)n2CCSCc2ccccc2)c1: 6.22
O=C(O)CCSCCn1c(-c2ccccc2)n[nH]c1=S: 5.70
O=C(O)CSCCn1c(-c2ccccc2)n[nH]c1=S: 6.15
S=c1[nH]nc(-c2ccccc2)n1CCCSc1ccccc1: 5.31
O=C(O)C(CSCCn1c(-c2cccc(-c3ccccc3)c2)n[nH]c1=S)c1ccccc1 (stereo unspecified): 6.68
S=c1[nH]nc(-c2ccccc2)n1CCSCCc1ccccc1: 6.37
S=c1[nH]nc(-c2ccccc2)n1CCSCc1ccccc1: 6.51
Cc1ccccc1-c1n[nH]c(=S)n1CCSCc1ccccc1: 6.30

The recorded pKi for `S=c1[nH]nc(-c2ccc(OCc3ccccc3)cc2)n1CCSCc1ccccc1` is 5.98

The reported pKi of the molecule `S=c1[nH]nc(-c2ccccc2)n1CCSc1cccc2ccccc12` was 6.60

Recorded pKi (molecule `S=c1[nH]nc(-c2cccc(-c3ccccc3)c2)n1CCSCc1ccccc1` ): 6.05

----------
Ki overview
Assay protocol: Inhibition of bacterial New Delhi metallo-beta-lactamase 1 (unknown origin) assessed as substrate hydrolysis using meropenem as substrate by UV-visible spectrometry analysis
Design: species or system Bacteria
Provide only the numeric value, understood in µM.

For reference, reported Ki for `Cc1ccccc1-c1n[nH]c(=S)n1CCSCc1ccccc1` stands at 13

Ki for `Fc1ccccc1CSCCn1c(-c2ccccc2)n[nH]c1=S` is 11.9

Ki for `Fc1ccc(CSCCn2c(-c3ccccc3)n[nH]c2=S)c(F)c1` is 12

// sample `O=[N+]([O-])c1ccc(CSCCn2c(-c3ccccc3)n[nH]c2=S)cc1` , its Ki was 11.1

----------
# pKi per record follows
Assay protocol: Inhibition of bacterial New Delhi metallo-beta-lactamase 1 (unknown origin) assessed as substrate hydrolysis using meropenem as substrate by UV-visible spectrometry analysis
Parameters: species or system Bacteria
// returns pKi (minus log10 of molar concentration), number only

# annotated cases, reported pKi shown
S=c1[nH]nc(-c2ccccc2)n1CCSc1ccccc1: 4.96
O=[N+]([O-])c1ccccc1CSCCn1c(-c2ccccc2)n[nH]c1=S: 4.88
FC(F)(F)c1cc(SCCn2c(-c3ccccc3)n[nH]c2=S)c2ccccc2n1: 4.89
O=C(O)C(CSCCn1c(-c2cccc(-c3ccccc3)c2)n[nH]c1=S)c1ccccc1 (stereo unspecified): 4.69
Cn1cccc1-c1n[nH]c(=S)n1CCSCc1ccccc1: 4.55

Note to self: pKi recorded for `S=c1[nH]nc(-c2ccccc2)n1CCSCCc1ccccc1` was 4.68

`Fc1ccc(CSCCn2c(-c3ccccc3)n[nH]c2=S)cc1` has a reported pKi of 4.82

Value of measured pKi for the entry O=C(O)C(CSCCn1c(-c2ccccc2)n[nH]c1=S)c1ccccc1 (stereo unspecified) : 5.22

Measured pKi, `O=[N+]([O-])c1ccc(O)c(CSCCn2c(-c3ccccc3)n[nH]c2=S)c1` : 4.92

Note to self: pKi recorded for `S=c1[nH]nc(-c2ccccc2)n1CCSCc1ccccc1` was 4.65

The reported value for `Nc1ccccc1SCCn1c(-c2ccccc2)n[nH]c1=S` in terms of pKi is 4.79
